# system.name: Nuclear receptor subfamily 1 group I member 2 (Homo sapiens)
# Sequence (O75469 whole entry): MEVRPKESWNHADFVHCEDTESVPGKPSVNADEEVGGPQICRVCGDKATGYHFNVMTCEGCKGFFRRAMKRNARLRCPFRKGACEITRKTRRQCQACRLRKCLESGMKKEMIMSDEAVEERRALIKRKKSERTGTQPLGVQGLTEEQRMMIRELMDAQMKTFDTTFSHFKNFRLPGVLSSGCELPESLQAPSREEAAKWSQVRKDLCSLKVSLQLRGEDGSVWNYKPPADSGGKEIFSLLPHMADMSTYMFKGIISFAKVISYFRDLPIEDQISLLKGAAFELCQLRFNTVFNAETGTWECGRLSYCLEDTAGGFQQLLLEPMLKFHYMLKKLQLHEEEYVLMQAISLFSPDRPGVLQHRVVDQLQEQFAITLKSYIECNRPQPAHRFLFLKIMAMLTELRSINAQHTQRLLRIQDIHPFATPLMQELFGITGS
# test.protocol: Agonist activity at PXR at 10 uM
# Format: functional
Could you label it 1 (yes) if measured Activity is 30% or higher, and 0 (no) otherwise?

Ask: Identify whether the reported Activity of the following compound is 30% or greater: `Cn1c(-c2ccc(C(N)=O)cc2C(N)=O)nnc1C1(c2ccc(Cl)cc2)CCC1`
Result: 0 (no)

Ask: // inclusive: Activity at least 30%? input: `Cn1c(-c2ccc(-c3cc(=O)[nH]cn3)cc2)nnc1C1(c2ccc(Cl)cc2)CCC1`
Result: 0 (no)

Ask: Evaluate `Cn1c(-c2ccc(-c3cnccn3)cc2F)nnc1C1(c2ccc(Cl)cc2)CCC1` : Activity at minimum 30%?
Result: 1 (yes)

Ask: Form field: Activity at least 30%? Entry: Cn1c(-c2ccc(-c3cnccn3)cc2Cl)nnc1C1(c2ccc(Cl)cc2)CC(F)C1 (stereo not drawn)
Result: 0 (no)

Ask: Confirm if Activity reported for the compound `Cn1c(-c2ccc(-c3cnc(O)nc3)cc2)nnc1C1(c2ccc(Cl)cc2)CCC1` is 30% or above.
Result: 0 (no)

Ask: Tell me whether Activity is at least 30% here: `Cn1c(-c2ccc(-c3cccnc3)cc2O)nnc1C1(c2ccc(Cl)cc2)CCC1`
Result: 1 (yes)

Ask: Please tell me: is the compound `Cn1c(-c2ccc(C(=O)O)cc2Cl)nnc1C1(c2ccc(Cl)cc2)CCC1` at or over 30% in terms of Activity?
Result: 0 (no)

Ask: Test whether the compound `Cn1c(-c2ccc(NC(=O)c3cccs3)cc2)nnc1C1(c2ccc(Cl)cc2)CCC1` records Activity of 30% or higher.
Result: 1 (yes)

Ask: Kindly determine if Activity recorded for `Cn1c(-c2ccc(-c3cccnc3)cc2F)nnc1C1(c2ccc(Cl)cc2)CCC1` is above or exactly 30%.
Result: 1 (yes)

Ask: API: above_or_equal(metric=Activity, cutoff=30%) for item `Cn1c(-c2ccc(C(N)=O)cc2)nnc1C1(c2ccc(Cl)cc2)CCC1`
Result: 0 (no)

Ask: Given the entry `Cn1c(-c2ccc(-c3ccc(N)nn3)cc2)nnc1C1(c2ccc(Cl)cc2)CCC1` , answer whether its Activity meets or surpasses 30%.
Result: 0 (no)

Ask: Does the compound `CC(=O)Nc1ccc(-c2nnc(C3(c4ccc(Cl)cc4)CCC3)n2C)cc1` have recorded Activity that is 30% or more?
Result: 0 (no)

Ask: State whether the measured Activity reaches 30%, counting equality as reaching it, for `Cn1c(-c2ccc(C(=O)O)cc2)nnc1C1(c2ccc(Cl)cc2)CCC1`
Result: 0 (no)

Ask: Assess whether reported Activity for `Cn1c(-c2ccc(C(=O)NC(C)(C)C)cc2)nnc1C1(c2ccc(Cl)cc2)CCC1` sits at 30% or higher.
Result: 0 (no)

Ask: Decide: Activity of `CCNC(=O)c1ccc(-c2nnc(C3(c4ccc(Cl)cc4)CCC3)n2C)cc1` >= 30%?
Result: 0 (no)

Ask: Please indicate if the recorded Activity for `Cc1noc(C)c1-c1ccc(-c2nnc(C3(c4ccc(Cl)cc4)CCC3)n2C)cc1` meets or exceeds 30%.
Result: 0 (no)

Ask: Could you tell me if the measured Activity of `Cn1c(-c2ccc(NC(=O)c3ccno3)cc2)nnc1C1(c2ccc(Cl)cc2)CCC1` reaches 30% or more?
Result: 0 (no)

Ask: Given `Cn1c(-c2ccc(-c3cnccn3)cc2)nnc1C1(c2ccc(Cl)cc2)CCC1` , state whether its Activity is at least 30%.
Result: 0 (no)

Ask: Quick check: does `COc1ncc(-c2ccc(-c3nnc(C4(c5ccc(Cl)cc5)CCC4)n3C)cc2)c(OC)n1` have Activity greater than or equal to 30%?
Result: 1 (yes)

Ask: Reported Activity at or above 30%? `Cn1c(-c2ccc(C(=O)N3CCOCC3)cc2)nnc1C1(c2ccc(Cl)cc2)CCC1`
Result: 0 (no)

Ask: Threshold query (Activity >= 30%) on `Cn1c(-c2ccc(C(=O)NC3CCC3)cc2)nnc1C1(c2ccc(Cl)cc2)CCC1`
Result: 0 (no)

Ask: For this compound, is measured Activity 30% or higher? `COc1cc(-c2cccnc2)ccc1-c1nnc(C2(c3ccc(Cl)cc3)CCC2)n1C`
Result: 1 (yes)

Ask: Could you please find out whether `Cn1c(-c2ccc(-c3cncnc3)cc2)nnc1C1(c2ccc(Cl)cc2)CCC1` has Activity that meets 30% or exceeds it?
Result: 0 (no)
